ASSAY_SYSTEM: E. coli GlpG (Escherichia coli, UniProt P09391)
Sequence (P09391 whole entry): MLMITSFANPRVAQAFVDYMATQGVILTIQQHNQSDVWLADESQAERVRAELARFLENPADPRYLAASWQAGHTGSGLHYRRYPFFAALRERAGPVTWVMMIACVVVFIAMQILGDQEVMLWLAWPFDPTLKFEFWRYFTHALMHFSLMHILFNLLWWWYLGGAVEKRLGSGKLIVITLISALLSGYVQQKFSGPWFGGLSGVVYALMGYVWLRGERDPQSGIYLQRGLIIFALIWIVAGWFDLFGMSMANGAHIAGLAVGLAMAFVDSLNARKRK
EXPERIMENT: GlpG in vitro activity assay
Format: biochemical
MEASUREMENT_PARAMETERS: read-out: IC50 [μM] GlpG; inhibitor preincubated 30 min at 37 °C, Gurken substrate, 90 min
ENDPOINT: IC50 (µM)
Answers are plain numbers, in µM.

IC50 of `O=c1oc(Cl)c(Cl)c2ccccc12` , assay on E. coli GlpG (Escherichia coli, UniProt P09391), is 19
